Molecular target: MAGE-A11:PCF11 interaction (GST-MAGE-A11 and FAM-PCF11_4) (Homo sapiens)
Construct: GST-MAGE-A11 MHD (human MAGE-A11 MHD amino acid 218-429); made in house; host or cells: E. coli BL21(DE3)
Assay: TR-FRET primary / single point screen at 15 µM
Format: binding
Details: single point TR-FRET screening of 797 quinoline compounds against MAGE-A11:PCF11
Experimental: The TR-FRET assay buffer with a formula of 50 mM Tris pH 7.5, 20 mM MgCl2, 0.1 mg/ml BSA and 1 mM DTT was freshly prepared before each experiment. […] After incubation, the fluorescent emission signals at 520 nm and 490 nm channels of individual wells were measured with a PHERAstar FS plate reader (BMG Labtech; Durham, NC, USA) by using a 340 nm excitation filter, 100 µs delay time, and 200 µs integration time. […] The TR-FRET signals for individual wells were measured with a PHERAstar FS plate reader. […]
Everything with percent inhibition (TR-FRET) lower than -10 is not met; everything else, including exactly -10, is met.

Does CCOc1ccc2ncc(S(=O)(=O)c3ccccc3)c(N3CCN(Cc4ccccc4)CC3)c2c1 [SJ000247249] have a reported percent inhibition (TR-FRET) of at least -10?
not met

Does Cc1csc(CN(CCCCNc2ccnc3cc(Cl)ccc23)Cc2ccccc2)n1 [SJ000520456] have a reported percent inhibition (TR-FRET) of at least -10?
not met

Does COc1ccc2ncc(C(=O)c3ccccc3)c(N3CCN(C)CC3)c2c1 [SJ000247245] have a reported percent inhibition (TR-FRET) of at least -10?
met

Does O=S(=O)(c1ccccc1)c1cnc2ccc(Cl)cc2c1N1CCN(Cc2ccccc2)CC1 [SJ000247242] have a reported percent inhibition (TR-FRET) of at least -10?
not met

Does CCN(CCO)CCCC(C)Nc1ccnc2cc(Cl)ccc12 (centres unmarked) [SJ000286026] have a reported percent inhibition (TR-FRET) of at least -10?
met

====

Would you mind telling me the reported percent inhibition (TR-FRET) of each entry?
Molecular target: MAGE-A11:PCF11 interaction (GST-MAGE-A11 and FAM-PCF11_4) (Homo sapiens, UniProt P43364)
Construct: GST-MAGE-A11 MHD (human MAGE-A11 MHD amino acid 218-429); made in house; host or cells: E. coli BL21(DE3)
Sequence (P43364 218-429): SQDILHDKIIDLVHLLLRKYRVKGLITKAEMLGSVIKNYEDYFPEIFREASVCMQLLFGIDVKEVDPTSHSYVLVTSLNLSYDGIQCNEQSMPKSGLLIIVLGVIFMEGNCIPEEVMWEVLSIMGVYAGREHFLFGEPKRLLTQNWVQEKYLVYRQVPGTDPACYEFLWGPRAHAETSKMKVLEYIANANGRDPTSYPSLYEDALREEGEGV
Experiment: TR-FRET primary / single point screen at 15 µM
Assay type: binding
Settings: single point TR-FRET screening of 797 quinoline compounds against MAGE-A11:PCF11
Respond using a number only.

Record request: percent inhibition (TR-FRET) value, item CCCCCCN1CCC(Nc2ccnc3cc(Cl)ccc23)CC1
29.2961

Record request: percent inhibition (TR-FRET) value, item COc1cc2ncc(S(=O)(=O)c3ccc(C)cc3)c(N3CCN(C)CC3)c2cc1OC
1.3128

Record request: percent inhibition (TR-FRET) value, item C#CCOCC(O)CN1CCN(c2cc(C(F)(F)F)nc3ccccc23)CC1 (stereo not drawn)
-9.5157

Record request: percent inhibition (TR-FRET) value, item COc1ccc(CN2CCC(Nc3ccnc4cc(Cl)ccc34)CC2)cc1OC
11.7451

Record request: percent inhibition (TR-FRET) value, item COc1ccc2nc3cc(Cl)ccc3c(NCCCNCc3sccc3C)c2c1
-321.32

Record request: percent inhibition (TR-FRET) value, item CCc1ccc2ncc(S(=O)(=O)c3ccc(C)cc3)c(N3CCN(CC)CC3)c2c1
2.377

Record request: percent inhibition (TR-FRET) value, item COc1cccc(F)c1CN1CCC(Nc2ccnc3cc(Cl)ccc23)CC1
10.503

Record request: percent inhibition (TR-FRET) value, item Clc1ccc(CN(CCCCNc2ccnc3cc(Cl)ccc23)Cc2ccccc2)c(Cl)c1
35.4339

Record request: percent inhibition (TR-FRET) value, item CCOc1ccc2ncc(C(=O)c3ccc(OC)cc3)c(N3CCN(CC)CC3)c2c1
-9.084

Record request: percent inhibition (TR-FRET) value, item CCN1CCN(c2c(C(=O)c3ccc(C)cc3)cnc3ccc(OC)cc23)CC1
3.9003

Record request: percent inhibition (TR-FRET) value, item CCOC(=O)c1cnc2ccc(C(=O)OC)cc2c1NCCN1CCOCC1
-7.813

Record request: percent inhibition (TR-FRET) value, item CN1CCN(c2c(S(=O)(=O)c3ccccc3)cnc3ccc(Cl)cc23)CC1
-5.3743

Record request: percent inhibition (TR-FRET) value, item C=CCOCC(O)CN1CCN(c2cc(C(F)(F)F)nc3ccccc23)CC1 (stereo not drawn)
-2.128

Record request: percent inhibition (TR-FRET) value, item COc1ccc2nc3cc(Cl)ccc3c(NCCCNCCC(C)SC)c2c1 (stereo not drawn)
-514.546

Record request: percent inhibition (TR-FRET) value, item O=S(=O)(c1ccccc1)c1cnc2ccc(F)cc2c1N1CCN(Cc2ccccc2)CC1
-62.2806

Record request: percent inhibition (TR-FRET) value, item CCc1ccc(S(=O)(=O)c2cnc3ccccc3c2N2CCN(c3ccc(OC)cc3)CC2)cc1
-11.204

Record request: percent inhibition (TR-FRET) value, item Cc1ccc(S(=O)(=O)c2cnc3ccc(F)cc3c2N2CCN(c3ccccc3)CC2)cc1C
-16.9013

Record request: percent inhibition (TR-FRET) value, item CCOC(=O)c1cnc2c(Cl)cc(Cl)cc2c1NCCN1CCOCC1
-13.059

====

Biological target: MAGE-A11:PCF11 interaction (GST-MAGE-A11 MHD and FAM-PCF11_4) (Homo sapiens, UniProt P43364)
Construct: GST-MAGE-A11 MHD (human MAGE-A11 MHD amino acid 218-429); made in house; host or cells: E. coli BL21(DE3)
Sequence (P43364 218-429): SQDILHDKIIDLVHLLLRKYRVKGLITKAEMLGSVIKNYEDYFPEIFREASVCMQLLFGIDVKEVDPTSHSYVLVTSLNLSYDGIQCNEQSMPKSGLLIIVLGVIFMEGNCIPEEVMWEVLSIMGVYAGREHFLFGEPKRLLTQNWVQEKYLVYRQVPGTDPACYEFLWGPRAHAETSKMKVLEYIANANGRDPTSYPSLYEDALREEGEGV
Experiment: TR-FRET dose response test of compounds for disruption of MAGE-A11:PCF11 binding
Details: Dose response TR-FRET screening of nine scaffold groups against MAGE-A11:PCF11; read-out: consensus IC50
Would you mind telling me the reported pIC50 of each entry?
Keep it numeric: pIC50 is minus log10 of the concentration in mol/L.

Record request: pIC50 value, item Cc1cc(C)c(C2Nc3ccccc3C(=O)N2CCCN2CCOCC2)cc1C (stereo not drawn)
4.21

Record request: pIC50 value, item COc1cccc(CNCCCNc2ccnc3cc(Cc4cccc(C(F)(F)F)c4)ccc23)c1O
4.56

Record request: pIC50 value, item c1ccc(Cc2ccc3c(NCCCNCc4cccc5c4OCO5)ccnc3c2)cc1
4.34

Record request: pIC50 value, item NC1=C(Nc2ccccc2)C(=O)c2ccccc2C1=O
4.22

Record request: pIC50 value, item COc1ccc(F)cc1CNCCCNc1ccnc2cc(-c3ccc4c(c3)OCO4)ccc12
4.52

Record request: pIC50 value, item NC1=C(N2CCCCC2)C(=O)c2ccccc2C1=O
4.70

====

target: MAGE-A11:PCF11 interaction (GST-MAGE-A11 MHD and FAM-PCF11_4) (Homo sapiens, UniProt P43364); construct: GST-MAGE-A11 MHD (human MAGE-A11 MHD amino acid 218-429); made in house; host or cells: E. coli BL21(DE3); test: TR-FRET dose response test of compounds for disruption of MAGE-A11:PCF11 binding; settings: Dose response TR-FRET screening of nine scaffold groups against MAGE-A11:PCF11; read-out: consensus IC50
Would you mind telling me the reported IC50 of each entry?
# unit: µM | format: bare number

Record request: IC50 value, item COc1cccc(-c2nc(S(=O)(=O)c3ccc(Cl)cc3)c(N3CCOCC3)o2)c1
7.43

Record request: IC50 value, item CCCCOc1ccc(N(C(C)=O)C2=C(Cl)C(=O)c3ccccc3C2=O)cc1
8.71

Record request: IC50 value, item COc1cccc(CNCCCNc2ccnc3cc(Oc4ccc(F)cc4)ccc23)c1O
61.9

Record request: IC50 value, item CC(C)(C)c1ccc(Oc2ccc3c(NCCCNCc4cccc5c4OCO5)ccnc3c2)cc1
8.67

Record request: IC50 value, item c1cc(CNCCCNc2ccnc3cc(CC4CCCCC4)ccc23)c2c(c1)OCO2
16

Record request: IC50 value, item CCC(CC)c1ccc2c(NCCCNCc3cc(F)ccc3OC)ccnc2c1
43

Record request: IC50 value, item COc1ccc(F)cc1CNCCCNc1ccnc2cc(-c3ccc(C(F)(F)F)cc3)ccc12
13.4

Record request: IC50 value, item CCCCCCCCOc1ccc(NC2=C(N)C(=O)c3ccccc3C2=O)cc1
54.8

Record request: IC50 value, item Cc1ccc(S(=O)(=O)c2nc(-c3ccc(F)cc3)oc2N2CCOCC2)cc1
11.7

Record request: IC50 value, item CCc1ccc(CNCCCNc2ccnc3cc(C(F)(F)F)ccc23)cc1
40.9

Record request: IC50 value, item COc1cccc(-c2nc(S(=O)(=O)c3ccc(C)cc3)c(N3CCOCC3)o2)c1
17.4

Record request: IC50 value, item c1cc(CNCCCNc2ccnc3cc(-c4cccc5ccccc45)ccc23)c2c(c1)OCO2
31.2

Record request: IC50 value, item O=C1C(Cl)=C(NC(=O)C(F)(F)F)C(=O)c2ccccc21
9.87

Record request: IC50 value, item Clc1cccc(Cl)c1Cc1ccc2c(NCCCNCc3cccc4c3OCO4)ccnc2c1
11

Record request: IC50 value, item COc1cccc(CNCCCNc2ccnc3cc(-c4ccccc4)ccc23)c1O
24.1

Record request: IC50 value, item Cc1cc(C)cc(Cc2ccc3c(NCCCNCc4cccc5c4OCO5)ccnc3c2)c1
16.3
